List of pIC50 values.
Molecular target: Epidermal growth factor receptor (Homo sapiens, UniProt P00533)
Sequence (P00533 whole entry): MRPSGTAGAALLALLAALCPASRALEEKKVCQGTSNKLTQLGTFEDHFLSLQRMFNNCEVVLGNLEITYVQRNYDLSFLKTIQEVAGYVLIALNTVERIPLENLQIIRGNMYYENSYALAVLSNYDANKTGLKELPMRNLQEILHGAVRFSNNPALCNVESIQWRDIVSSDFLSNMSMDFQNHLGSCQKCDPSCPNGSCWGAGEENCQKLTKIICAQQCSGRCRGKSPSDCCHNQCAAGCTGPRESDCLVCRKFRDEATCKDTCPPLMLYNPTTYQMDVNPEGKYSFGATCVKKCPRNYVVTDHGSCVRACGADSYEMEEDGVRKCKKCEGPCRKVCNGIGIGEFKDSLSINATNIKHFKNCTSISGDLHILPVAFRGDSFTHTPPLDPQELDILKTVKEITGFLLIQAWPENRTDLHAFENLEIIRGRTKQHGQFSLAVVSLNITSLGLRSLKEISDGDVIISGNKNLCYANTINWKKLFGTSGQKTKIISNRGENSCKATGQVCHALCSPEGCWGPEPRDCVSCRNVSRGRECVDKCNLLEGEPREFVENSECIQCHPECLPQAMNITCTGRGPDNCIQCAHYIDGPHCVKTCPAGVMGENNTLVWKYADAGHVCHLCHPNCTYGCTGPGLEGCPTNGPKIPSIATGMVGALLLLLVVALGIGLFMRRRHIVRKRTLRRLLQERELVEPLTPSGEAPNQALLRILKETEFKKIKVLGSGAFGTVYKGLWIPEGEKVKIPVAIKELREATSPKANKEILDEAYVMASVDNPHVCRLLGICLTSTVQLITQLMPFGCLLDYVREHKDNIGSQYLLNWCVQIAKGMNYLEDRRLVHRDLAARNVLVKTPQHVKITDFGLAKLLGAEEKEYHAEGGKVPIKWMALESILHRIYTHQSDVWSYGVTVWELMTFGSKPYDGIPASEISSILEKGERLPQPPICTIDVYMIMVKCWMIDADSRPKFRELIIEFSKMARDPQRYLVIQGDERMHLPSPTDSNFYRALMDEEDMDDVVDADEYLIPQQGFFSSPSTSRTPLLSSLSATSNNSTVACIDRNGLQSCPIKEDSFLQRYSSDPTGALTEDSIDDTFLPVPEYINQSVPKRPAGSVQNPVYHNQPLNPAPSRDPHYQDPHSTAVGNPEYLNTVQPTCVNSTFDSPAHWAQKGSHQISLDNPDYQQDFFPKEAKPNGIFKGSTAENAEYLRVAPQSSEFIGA
Assay: Inhibition of EGFR autophosphorylation in DiFi cells
pIC50: −log10 of the molar value.

SMILES STRUCTURE: Clc1ccc2c(c1)CNc1c(Nc3cccc(Br)c3)ncnc1O2
REPORTED RELATION: <
pIC50: 4.52
--
SMILES STRUCTURE: C=CC(=O)Nc1ccc2c(c1)CNc1c(Nc3ccc(F)c(Cl)c3)ncnc1O2
REPORTED RELATION: =
pIC50: 5.05
--
SMILES STRUCTURE: Fc1ccc2c(c1)CNc1c(Nc3cccc(-c4ccccc4)c3)ncnc1O2
REPORTED RELATION: =
pIC50: 5.00
--
SMILES STRUCTURE: COc1ccc2c(c1)CNc1c(Nc3cccc(Br)c3)ncnc1O2
REPORTED RELATION: =
pIC50: 6.00
--
SMILES STRUCTURE: COc1cc2c(cc1OC)Oc1ncnc(Nc3ccc(F)c(Cl)c3)c1NC2
REPORTED RELATION: =
pIC50: 6.16
--
SMILES STRUCTURE: Fc1ccc2c(c1)CNc1c(NCc3ccccc3)ncnc1O2
REPORTED RELATION: <
pIC50: 4.52
--
SMILES STRUCTURE: Fc1ccc2c(c1)CNc1c(Nc3cccc(Br)c3)ncnc1O2
REPORTED RELATION: =
pIC50: 5.16
--
SMILES STRUCTURE: Fc1ccc2c(c1)CNc1c(Nc3ccc(F)c(Cl)c3)ncnc1O2
REPORTED RELATION: =
pIC50: 5.14
--
SMILES STRUCTURE: O=C(O)c1ccc2c(c1)CNc1c(Nc3ccc(F)c(Cl)c3)ncnc1O2
REPORTED RELATION: <
pIC50: 4.52
--
SMILES STRUCTURE: COc1ccc2c(c1)Oc1ncnc(Nc3cccc(Br)c3)c1NC2
REPORTED RELATION: =
pIC50: 5.72
--
SMILES STRUCTURE: Nc1ccc2c(c1)CNc1c(Nc3cccc(Br)c3)ncnc1O2
REPORTED RELATION: <
pIC50: 4.52
